TESTED_ON: UniProt:P11168
Sequence (P11168 1-524): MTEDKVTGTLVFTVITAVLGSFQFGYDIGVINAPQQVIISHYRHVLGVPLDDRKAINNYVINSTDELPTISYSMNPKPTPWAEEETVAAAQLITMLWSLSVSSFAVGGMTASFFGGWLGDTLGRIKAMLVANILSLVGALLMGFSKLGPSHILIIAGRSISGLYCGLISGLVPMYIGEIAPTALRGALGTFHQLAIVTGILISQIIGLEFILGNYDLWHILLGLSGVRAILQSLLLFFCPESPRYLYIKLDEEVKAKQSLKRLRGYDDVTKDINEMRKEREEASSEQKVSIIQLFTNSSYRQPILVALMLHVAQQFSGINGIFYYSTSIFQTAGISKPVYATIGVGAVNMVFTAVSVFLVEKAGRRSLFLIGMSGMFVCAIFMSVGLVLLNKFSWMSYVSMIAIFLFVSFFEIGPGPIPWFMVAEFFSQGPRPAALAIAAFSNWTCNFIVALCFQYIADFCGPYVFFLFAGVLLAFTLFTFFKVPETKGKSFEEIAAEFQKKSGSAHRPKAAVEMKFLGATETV
TEST: Glucose transport inhibitor cell screening assay, 25 mM D-glucose for 30 minutes
CONDITION_NOTES: Caco-2 cell model, 25 mM D-glucose
RECORDED_ENDPOINT: GLUT2 inhibition (in words)

[[record]]
structure_smiles = "O=C(/C=C/c1ccc(O)c(O)c1)O[C@@H]1C[C@](O)(C(=O)O)C[C@@H](O)[C@H]1O"
observed_measurement = "no inhibitory activity"

[[record]]
structure_smiles = "O=C(/C=C/c1ccc(O)c(O)c1)O[C@H](Cc1ccc(O)c(O)c1)C(=O)O"
observed_measurement = "no inhibitory activity"

[[record]]
structure_smiles = "O=C(O)/C=C/c1ccc(O)c(O)c1"
observed_measurement = "no inhibitory activity"


---

TESTED_ON: GLUT2 (Homo sapiens)
Sequence (P11168 1-524): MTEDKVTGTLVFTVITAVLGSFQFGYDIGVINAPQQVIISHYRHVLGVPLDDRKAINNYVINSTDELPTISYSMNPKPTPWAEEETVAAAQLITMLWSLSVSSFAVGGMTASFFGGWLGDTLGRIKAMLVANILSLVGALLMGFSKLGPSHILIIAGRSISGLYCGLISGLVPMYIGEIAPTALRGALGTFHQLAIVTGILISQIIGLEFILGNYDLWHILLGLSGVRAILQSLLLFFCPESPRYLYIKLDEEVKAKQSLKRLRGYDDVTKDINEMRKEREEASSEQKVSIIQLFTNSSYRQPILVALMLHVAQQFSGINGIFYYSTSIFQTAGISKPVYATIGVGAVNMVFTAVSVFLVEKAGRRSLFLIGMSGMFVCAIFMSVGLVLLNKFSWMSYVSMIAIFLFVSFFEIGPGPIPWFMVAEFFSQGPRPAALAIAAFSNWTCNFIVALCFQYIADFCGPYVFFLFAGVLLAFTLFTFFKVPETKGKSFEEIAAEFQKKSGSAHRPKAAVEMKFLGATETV
TEST: Glucose transport inhibitor cell screening assay, 25 mM D-glucose for 30 minutes
CONDITION_NOTES: Caco-2, read-out: % Glucose Transport inhibition 25 mM
RECORDED_ENDPOINT: inhibition at 25000 µM

[[record]]
compound = "COc1cc(-c2[o+]c3cc(O)cc(O)c3cc2O)cc(OC)c1O [Malvidin]"
observed_measurement = "4.99%"

[[record]]
compound = "COc1cc(/C=C/c2ccc(O)cc2)cc(OC)c1 [Pterostilbene]"
observed_measurement = "8.26%"

[[record]]
compound = "O=C(CCc1ccc(O)cc1)c1c(O)cc(O)cc1O[C@@H]1O[C@H](CO)[C@@H](O)[C@H](O)[C@H]1O [Phloridzin, reference compound]"
observed_measurement = "18.4%"

[[record]]
compound = "Oc1ccc(-c2[o+]c3cc(O)cc(O)c3cc2O)cc1 [Pelargonidin]"
observed_measurement = "16.5%"

[[record]]
compound = "Oc1ccc(C=Cc2cc(O)cc(O)c2)cc1 [Resveratrol]"
observed_measurement = "59%"

[[record]]
compound = "Oc1cc(O)cc(/C=C/c2ccc(O)c(O)c2)c1 [Piceatannol]"
observed_measurement = "32.7%"


The values you see were collected from patent US20150313927A1.
